IC50 by entry:
# Tested on: HeLa
# Test summary: MTT assay, HeLa
# Format: cell-based
# Condition parameters: Homo sapiens, HeLa, 72 h, read-out: IC50 ± SD Cervical HeLa

Would you please look over these solved cases?
> print(dat)
                                   compound  meas.value
1  CCN(CC)c1ccc(C2=NN(c3ccccc3)C(c3ccc(OC)cc3)C2)cc1 (centres unmarked)    > 100 µM
2  CN(C)c1ccc(C2=NN(c3ccccc3)C(c3ccc(Cl)cc3Cl)C2)cc1 (centres unmarked)    > 100 µM
3   COc1ccc(C(=O)/C=C/c2ccc(N(C)C)cc2)cc1OC     39.5 µM
4     COc1ccc(C(=O)/C=C/c2ccc(N(C)C)cc2)cc1    > 100 µM
5  CCN(CC)c1ccc(C2=NN(c3ccccc3)C(c3ccccn3)C2)cc1 (centres unmarked)    > 100 µM

I'd like to know its IC50. The compound in question is CN(C)c1ccc(C2=NN(c3ccccc3)C(c3ccccn3)C2)cc1 (centres unmarked)
> 100 µM

And then CCN(CC)c1ccc(/C=C/C(=O)c2ccccn2)cc1 , what is it?
> 100 µM

====

# System: A549
# Test summary: MTT assay, A549
# Type: cell-based
# Condition parameters: 72 h, read-out: IC50 ± SD Lung A549
Readout kind: IC50 (µM)
Just the number in µM, nothing appended.

Bench note: what IC50 did COc1ccc(C(=O)/C=C/c2ccc(N(C)C)cc2)cc1OC show?
66.3

====

# System: HeLa
# Test summary: MTT assay, HeLa
# Format: cell-based
# Condition parameters: Homo sapiens, HeLa, 72 h, read-out: IC50 ± SD Cervical HeLa
pIC50: −log10 of the molar value.
Readout kind: pIC50

> print(dat)
                                   compound  meas.value
1  COc1ccc(C2CC(c3ccc(N(C)C)cc3)=NN2c2ccccc2)cc1OC (stereo not shown) [DML10]      < 4.00

Lab request: please report pIC50 under test system HeLa for COc1ccc(C2CC(c3ccc(N(C)C)cc3)=NN2c2ccccc2)cc1 (stereo not shown) [DML9]
< 4.00

Another compound: CN(C)c1ccc(/C=C/C(=O)c2ccc(Cl)cc2Cl)cc1 [DML6]
5.04

Now consider CN(C)c1ccc(/C=C/C(=O)c2ccccn2)cc1 [DML1] and answer again.
< 4.15
